Tested on: Entamoeba histolytica
RUN_DESCRIPTION: The compound was tested in vitro against the protozoa Entamoeba histolytica, for the inhibition of tubulin polymerization in rat brain
Type: functional
PROPERTY_LABEL: IC50 (nM)

>>> df
             smiles_text  property_label  reported_measurement
0  Nc1nc2ccc(Cl)cc2[nH]1            IC50                   125
1      Nc1nc2ccccc2[nH]1            IC50                   114
2  Cc1nc2cc(Cl)ccc2[nH]1            IC50                    84
3   Clc1cc2nc[nH]c2cc1Cl            IC50                    96
4      Sc1nc2ccccc2[nH]1            IC50                   133
